Hello, the source for this data is PubChem BioAssay AID1029, in case you need it.

- assay: blockers of IgG-bead uptake by macrophages – imaging, J774A.1 cells, IgG beads, primary screen (AID 1029);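 further: phagocytic index as fraction of beads internalized from green versus red external bead signal; plate controls were DMSO negative control for no effect and cytochalasin-D positive control for full effect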
- condition.context: J774A.1 macrophage IgG-bead phagocytosis, at 5 µM
Hit rate of the full screen: of about 110,000 compounds, about 80 (0.07%) were called active.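 How the source made its calls: active means inhibition above the mean of the plate negative controls plus 5 SD (cut at about 13% in these data); inactive means the rest.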 The sample holds actives, similar compounds and a random draw of the others, so the mix is not that of the screen.
Classes used: active, inactive

molecule	assigned.label
Cc1[nH]n(-c2ccccc2)c(=O)c1/C=N/NC(=O)c1ccoc1C	inactive
c1coc(-c2nc3nc4ccccc4n3nc2-c2ccco2)c1	inactive
CC(C)(C)C(=O)NC(NC(=S)Nc1ccc(S(N)(=O)=O)cc1)C(Cl)(Cl)Cl (stereo unspecified)	inactive
COc1ccc(C)cc1NC(=O)C(OC(=O)c1cccc(S(=O)(=O)N(C)c2ccccc2)c1)c1ccccc1 (stereo unspecified)	inactive
CC1CCCCN1S(=O)(=O)c1ccc(S(=O)(=O)N(CC(=O)Nc2ccccc2)Cc2cccs2)cc1 (stereo unspecified)	inactive
CCc1ccc(NC(=O)CC2C(=O)NCCN2C(=S)Nc2ccccc2)cc1 (stereo unspecified)	inactive
NC(=O)Nc1ccccc1C(=O)NCCc1ccccc1	inactive
O=C(NC1CCN(Cc2ccccc2)CC1)c1c(F)cccc1F	inactive
CC(C)C(C)(C#N)NC(=O)CSc1nc2scc(-c3ccccc3)c2c(=O)[nH]1 (stereo unspecified)	inactive
Cc1ccc(SCCC(=O)NC(C(C)C)C(C)C)cc1	inactive
CCCCOc1ccc(C(=O)N/C(=C/C=C/c2ccccc2)C(=O)N2CCOCC2)cc1	inactive
COc1ccc(OCc2cn3c(C)cc(C)nc3n2)cc1	inactive
Cc1cc(NCc2ccco2)n2c(nc3ccccc32)c1C#N	inactive
CN(c1nc2ccccc2n2c(-c3ccco3)nnc12)S(=O)(=O)c1ccccc1	active
O=C(/C=C\c1ccc2c(c1)OCO2)NC1(C(=O)Nc2ccc3c(c2)OCCO3)CCCCC1	inactive
COCCNC(=S)N/N=C/c1c(C)[nH]c2ccccc12	inactive

###

- assay: blockers of IgG-bead uptake by macrophages – imaging, J774A.1 cells, IgG beads, primary screen (AID 1029);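 further: phagocytic index as fraction of beads internalized from green versus red external bead signal; plate controls were DMSO negative control for no effect and cytochalasin-D positive control for full effect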
- condition.context: J774A.1 macrophage IgG-bead phagocytosis, at 5 µM, stronger effect = higher value
Among all 110,000 compounds or so, about 80 (0.07%) were called active. The sample as a whole holds a higher share of actives than the screen did.
Overview of recorded inhibition for various compounds

compound	inhibition [%]
CCC(NC(=O)c1ccccc1NC(=O)c1ccccc1)C(=O)NNC(=O)CSc1nc2ccccc2o1 (centres undefined)	-1.59
COc1ccc(C(=O)CSc2nnc(NC(=O)C3CC(=O)N(c4cccc(OC)c4)C3)s2)cc1 (centres undefined)	6.45
O=C(NC(=O)N1CCOCC1)c1ccccc1	-2.51
COc1ccc(C2CC(c3ccccc3)=NN2C(=O)CSc2nccc(=O)[nH]2)cc1 (centres undefined)	-11.3

###

- assay: blockers of IgG-bead uptake by macrophages – imaging, J774A.1 cells, IgG beads, primary screen (AID 1029);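 further: phagocytic index as fraction of beads internalized from green versus red external bead signal; plate controls were DMSO negative control for no effect and cytochalasin-D positive control for full effect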
- condition.context: J774A.1 macrophage IgG-bead phagocytosis, at 5 µM, stronger effect = higher value
The whole screen tested about 110,000 compounds, of which about 80 (0.07%) were called active. The sample holds actives, similar compounds and a random draw of the others, so the mix is not that of the screen.
measurement.kind: inhibition

compound	recorded.value
CCOC(=O)CNC(=O)/C=C/c1c(Cl)cccc1Cl	-2.32% (inactive)
CNC(=S)N/N=C/c1ccc(OCc2ccccc2)c(Br)c1	-0.67% (inactive)
CCOc1ccccc1N1CCN(C(=S)Nc2ccc(S(N)(=O)=O)cc2)CC1	-1.85% (inactive)
Cc1cccc(NC(=S)N(CCN(C)C)C(C)c2ccco2)c1 (centres undefined)	-6.2% (inactive)
COc1ccc(C(=O)COC(=O)c2ccc3ccccc3n2)cc1	-5.54% (inactive)
COc1ccccc1OCc1ccc(C(=O)N2CCN(C)CC2)o1	0.11% (inactive)
CC(=O)c1ccc2c(c1)c1ccccc1n2CC(C)C	0.3% (inactive)
Cc1ccc(C)c(NC(=O)CCC(=O)NNC(=O)c2cccs2)c1	1.58% (inactive)
Cc1ccc(C(=O)NC(C)c2ccccc2)cc1Br (centres undefined)	-1.23% (inactive)
Cc1nnc(SCc2cc(=O)[nH]c(N3CCN(Cc4ccccc4)CC3)n2)s1	55.5% (active)
CCc1ccc(C2N3CC4([N+](=O)[O-])CN2CC([N+](=O)[O-])(C3)C4(C)C)cc1 (centres undefined)	-13.9% (inactive)
COc1ccc(NC(=S)NCc2cccs2)c(OC)c1	0.55% (inactive)
CCc1c(C)nc(N2CCN(Cc3ccccc3)CC2)[nH]c1=O	-1.2% (inactive)
Cc1nc(-c2ccccc2)cn2c1nc1ccccc12	-5.21% (inactive)
COc1cc(/C=C/C(=O)N2c3ccccc3Sc3ccc(C(F)(F)F)cc32)cc(OC)c1OC	-3.45% (inactive)
CC1CN(S(=O)(=O)c2ccc(C(=O)Nc3sccc3C(N)=O)cc2)CC(C)O1 (centres undefined)	-5.22% (inactive)
Cc1nc2c(C(=O)NCc3cccs3)cnn2c(C)c1Cc1ccc(F)cc1	-10.6% (inactive)
COC(=O)/C(=C1\Oc2ccc(C(C)(C)C)cc2S1)C(F)(F)F	7.86% (inactive)
C/C(=N\NC(=O)c1ccc(CSc2nc(C)cc(C)n2)cc1)C1CCCCC1	-4.86% (inactive)
CCCCCNC(=O)c1cccnc1SCC(=O)Nc1ccccc1OC	-7.81% (inactive)
CCCCOc1ccc(NC(=O)[C@@H]2CCCN2C(=O)C2CCN(S(=O)(=O)c3ccc(C)cc3)CC2)cc1	-3.36% (inactive)
Cc1nn(Cc2ccc(Cl)cc2)c(Cl)c1/C=N/NC(=O)c1cccnc1	-2.24% (inactive)
CCC(=O)/C=C1\Sc2ccccc2N1CC	-1.58% (inactive)
CCc1ccc(-c2cc(C(=O)NN3CCN(C)CC3)c3ccccc3n2)cc1	-2.84% (inactive)
